experiment: Pharmacokinetics in rats after single intravenous administration (RP-HPLC); assay type: in vivo, rat; details: female, SD, rat, whole blood, iv, 8 mg/kg, rat whole blood, single i.v. 8 mg/kg, two-chamber model; read-out: t1/2 alpha (distribution half-life)
ENDPOINT: half-life
Report the figure along with its unit, number first.

Can you look up the measured half-life of CC(=O)Oc1c(OC(C)=O)c2c(C)coc2c2ccc3c(c12)CCCC3(C)C [Free ATA, acetyltanshinone IIA] for me? 3.55 min

###

assay: Pharmacokinetics in rats after single intravenous administration (RP-HPLC); assay type: in vivo, rat; settings: female, SD, iv; rat whole blood, single i.v. 8 mg/kg, statistical moment analysis; read-out: MRT (mean retention time) (converted)
ENDPOINT: MRT
Report the figure along with its unit, number first.

Can you look up the measured MRT of CC(=O)Oc1c(OC(C)=O)c2c(C)coc2c2ccc3c(c12)CCCC3(C)C [Free ATA, acetyltanshinone IIA] for me? 15.9 min

###

experiment: Pharmacokinetics in rats after single intravenous administration (RP-HPLC); format: in vivo, rat; conditions: female, SD, iv; rat whole blood, single i.v. 8 mg/kg, two-chamber model
ENDPOINT: AUC(0-inf)
Report the figure along with its unit, number first.

Can you look up the measured AUC(0-inf) of CC(=O)Oc1c(OC(C)=O)c2c(C)coc2c2ccc3c(c12)CCCC3(C)C [Free ATA, acetyltanshinone IIA] for me? 0.514 µM·h
